# targetOfAssay: T1, human HER3-ECD-His (human, UniProt P21860 20-643)
# T1 construct: extracellular domain; Fusion protein of the extracellular domain of human HER3 and a His tag; also called hHER3-ECD-His; human HER3 extracellular domain protein; not shown: His tag
# assay: Octet (BLI)
observationType: koff
Units required after the number.

Completed entries (count: 3):
{"binder": "cHE7-G1W (antibody, human IgG1, V domains shown, also called chimeric HE7 antibody; not shown: human IgG1 heavy chain constant region, GenBank AXN93653.1; human kappa light chain constant region, GenBank AWK57456.1) VH: EVQLQQSGPDLVKPGTSVKMSCKASGYTFTDYYMHWVRQSHGKSLEWIGYINPNNGDAIYNQKFKGKATLTVDKSSTTAYMALRSLTSEDSAVYFCATYDYGGDFYFDVWGTGTTVTVSS VL: DIELTQSPALMSASPGEKVTMTCSASSSVSYMYWYQQKPRSSPKPWIYLTSNLASGVPARFSGSGSGTSYSLTISSMEAEDAATYYCQQWSRNPLTFGAGTKLELKR", "koff": "5.57e-07 s⁻¹"}
{"binder": "cHE1-G1W (antibody, human IgG1, V domains shown, also called chimeric HE1 antibody; not shown: human IgG1 heavy chain constant region, GenBank AXN93653.1; human kappa light chain constant region, GenBank AWK57456.1) VH: EVKLQESGPGLVKPSQSLSLTCSVTGYSITSGYYWNWIRQFPGNKLEWMGYISYDGSNNYNPSLKNRISITRDTSKNQFFLNLNSVTTEDTATYYCARVDWDGDAMDYWGQGTSVTVSS VL: DIVLTQSPASLAVSLGQRATISCRASESVDNYGIRLMHWYQQKSGQPPKLLIHRASNLESGIPARFSGSGSRTDFTLTINPVETDDVATYYCQQSNKDPFTFGSGTKLEIKR", "koff": "0.00356 s⁻¹"}
{"binder": "cHE5-G1W (antibody, human IgG1, V domains shown, also called chimeric HE5 antibody; not shown: human IgG1 heavy chain constant region, GenBank AXN93653.1; human kappa light chain constant region, GenBank AWK57456.1) VH: EVQLQESGPGLVKPSQSLSLTCSVTGYSITSGYYWNWIRQFPGNKLEWMGYISYDGSNNYNPSLKNRISITRDTSKNQFFLKLNSVTTEDTATYYCASYDYDGDWFAYWGQGTLVTVSA VL: DIVLTQSPASLAVSLGQRATISCRASESVDHYGSSFMHWYQQKPGQPPKLLIYRASNPESGIPARFSGSGSRTDFTLTINPVETDDVATYYCQQSNKDPPTFGGGTKLEIKR", "koff": "0.00253 s⁻¹"}

Ask: Which koff value belongs to cHE4-G1W (antibody, human IgG1, V domains shown, also called chimeric HE4 antibody; cHE4-G1W4; not shown: human IgG1 heavy chain constant region, GenBank AXN93653.1; human kappa light chain constant region, GenBank AWK57456.1) VH: EVQLVESGGGLVKPGGSLKLSCAASGFTFSSYVMSWVRQTPEKRLEWVATISDGDSSTYYPDNVKGRFTISRDNAKNNLFLQMSHLKSEDTAMYFCARDKGHGYDEGAFVYWGQGTLVTVSA VL: DIQMTQSPASLSASVEETVTITCRASENIYSYLAWYQQKQGKSPQLLVYNAKTLAEGVPSRFSGSGSGTEFSLKINSLQPEDFGSYYCQNHYGTPYTFGGGTKLEIKQ ?
Result: 0.000234 s⁻¹
